System: MS2 coat protein
assay: apparent KD of MS2 coat protein; higher = weaker reporter binding
testSettings: Eterna round: R107; input ligand: tryptophan 2.4 mM
Reported apparent KD of MS2 coat protein is given for each of the following sequences.
# do not omit the unit; it follows the number

Here is how some sequences turned out for apparent KD of MS2 coat protein.
[
  {
    "residues": "UUAUUUAUAGGCGAUACCAGCCGAAUGGCCGCAAAUCCUAACAUGAGGAUCACCCAUGUCGGCCCUUGGCAGCGCCUAUGGGUUU [XTheo B #27]",
    "apparent KD of MS2 coat protein": "93.3 nM"
  },
  {
    "residues": "GGGAAAGGAGAAGAUACCAGCCGCCUCACAAGUCUACACUACAUGAGGAUCACCCAUGUGGGCCCUUGGCAGCUUGACCGCGAAA [theeternabot_exclusion_MS2_Theo_B_20]",
    "apparent KD of MS2 coat protein": "39.3 nM"
  },
  {
    "residues": "AAUUUAAACGGAAGGAGCGUCACUUAAUAUCAACAUGAGGAUCACCCAUGUAAGGGUUGUAGACAGGUAGGUCGCCGUCAUUUGA [JR_AAArginiB_Sub023]",
    "apparent KD of MS2 coat protein": "35.4 nM"
  },
  {
    "residues": "GGCUCCAGCCGAAGGAGCGCUAGAAGGUGACAUGAGGAUCACCCAUGUGUGUGAUGUGGCUAGCAGGUAGGUCGCGGAGGAGCUU [Exclusion - Arginine B (Freestyle 19)]",
    "apparent KD of MS2 coat protein": "71.1 nM"
  },
  {
    "residues": "GUAUGGAAACAUACUAUGGUAUCGUGAGAUACCAGUACAGAAAUGUACCCUUGGCAGCUCGCGCAUACAUGAGGAUCACCCAUGU [Ex Theophylline A 10]",
    "apparent KD of MS2 coat protein": "19.5 nM"
  }
]

Fetch value of apparent KD of MS2 coat protein on MS2 coat protein for UUUACAUGAGGAUCACCCAUGUGCCAUGAUACCAGACAUGAAAAUGUCCCUUGGCAGCAUGAAUAAUCCUCGUCGGGAAACCGAC [Lisen] .
70.8 nM

Report the value of apparent KD of MS2 coat protein obtained on MS2 coat protein for ACUAGUUGUGCAGAUACCAGACAUGAGGAUCACCCAUGUUUGGGAUCUUCGGAUCUUCCUGUCCCUUGGCAGCUGUACAUCUAGA [Omei Theo B Exc v3] .
125 nM

Provide MS2 coat protein apparent KD of MS2 coat protein reading for AUAUUUAAUGGAAGGAGCGCGGAUAAUAAAGUGGGUAAACAUGAGGAUCACCCAUGUAAACCGCAGGUAGGUCGCCGAAAUAUAU [AstrosEXyARgB#8] .
47 nM

Find the measured apparent KD of MS2 coat protein of `ACAUGAGGAUCACCCAUGUAAAUCCUCGAUACCAGCCAAAGGAGAGGCCCUUGGCAGCGGAAAGGCCGGGUAUAAAUGUCCGGCC` with MS2 coat protein as test system.
125 nM

Give apparent KD of MS2 coat protein only, for AUUGACAUGAGGAUCACCCAUGUAUCCGAAGGAGCGGCAGAUGUGCCAGGUAGGUCGCGGGUGAAAGAGACAUCGUAGGGUGUCG [Same State - Arginine A / B [only NuPack]] , using MS2 coat protein data.
229 nM

Give apparent KD of MS2 coat protein for this entry on MS2 coat protein: AUCUCAUAGAGUGAUACCAGACUACAUGAGGAUCACCCAUGUUACAUUUAAAUAUCAUUUGUCCCUUGGCAGCACAUUAAGUACA [JR_Nu_ExcTheophyB_Sub019]
23.4 nM

For MS2 coat protein, give apparent KD of MS2 coat protein of the listed sequence: ACAUGAGGAUCCGAUACCAGCCACAUGAGGAUCACCCAUGUAGUACAUGAGGAUCACCCAGGCCCUUGGCAGCGGACAUGAGGAU [Exclusion - Theophylline B]
149 nM
